compounds and their reported composite z-score
- TARGET: Streptavidin (Streptomyces avidinii)
- TEST SUMMARY: streptavidin binders on small-molecule microarray, primary screen, artefact control for SMM compound annotation, biophysical, 635/667 nm fluorescence (AID 1147);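 also: signal reflects streptavidin binding to arrayed compounds as a control protein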
- ASSAY CONTEXT: streptavidin binding, higher = more signal

[
  {
    "COMPOUND": "NC(N)=NCc1cn(CCc2c[nH]c3ccccc23)nn1",
    "TARGET": "Streptavidin (Streptomyces avidinii)",
    "composite z-score": 0.294
  },
  {
    "COMPOUND": "CC(C)C[C@@H]1NC(=O)[C@H]2C[C@@H](C(=O)NCCCCCC[N+](C)(C)C)[C@@H](c3cccc(OCCO)c3)N2C1=O",
    "TARGET": "Streptavidin (Streptomyces avidinii)",
    "composite z-score": -0.368
  },
  {
    "COMPOUND": "C=C(CCCC)/C(=C/C[C@@H](OC(C)=O)c1ccc(CO)o1)c1cc(C(=O)OC)ccc1OC",
    "TARGET": "Streptavidin (Streptomyces avidinii)",
    "composite z-score": 0.498
  },
  {
    "COMPOUND": "COCCOC(=O)N1C(=O)[C@@]2(c3cc(C#CC4=CCCCC4)ccc31)[C@H](c1ccccc1OCCO)N1[C@H](c3ccccc3)[C@H](c3ccccc3)OC(=O)[C@H]1[C@@H]2C(=O)N1CCc2cc(OC)c(OC)cc2C1",
    "TARGET": "Streptavidin (Streptomyces avidinii)",
    "composite z-score": -0.0953
  },
  {
    "COMPOUND": "CN1C2C=C(CCCO)C(C3C(=O)N(C(N)=O)C(=O)C32)C1c1cccs1 (stereo not given)",
    "TARGET": "Streptavidin (Streptomyces avidinii)",
    "composite z-score": 0.0783
  },
  {
    "COMPOUND": "CC(C)N1C(=O)[C@@]2(c3ccc([N+](=O)[O-])cc3)CC(=O)N(C3CCCCC3)[C@@H]2c2ccc(CO)cc21",
    "TARGET": "Streptavidin (Streptomyces avidinii)",
    "composite z-score": -0.196
  },
  {
    "COMPOUND": "COC(=O)C[C@H]1O[C@]2(C(=O)N(C)c3ccccc32)[C@@H](C)[C@@H]1[Si](C)(C)c1ccc(C)cc1",
    "TARGET": "Streptavidin (Streptomyces avidinii)",
    "composite z-score": 0.0785
  },
  {
    "COMPOUND": "CCCCN1CC=CC23O[C@@H]4C=CCOC(=O)[C@@H]4[C@H]2C(=O)N(CCCO)[C@@H]3C1=O (stereo not given in full)",
    "TARGET": "Streptavidin (Streptomyces avidinii)",
    "composite z-score": -0.808
  },
  {
    "COMPOUND": "C=C(C(=O)CC[C@H](OC(=O)c1cccnc1)c1cccc(OCCO)c1)C(C)C",
    "TARGET": "Streptavidin (Streptomyces avidinii)",
    "composite z-score": 0.0502
  },
  {
    "COMPOUND": "COCCOC(=O)N1C(=O)[C@@]2(c3cc(C#CC4(O)CCCCCC4)ccc31)[C@H](c1ccccc1OCCO)N1[C@H](c3ccccc3)[C@H](c3ccccc3)OC(=O)[C@H]1[C@@H]2C(N)=O",
    "TARGET": "Streptavidin (Streptomyces avidinii)",
    "composite z-score": 0.421
  },
  {
    "COMPOUND": "CCOC(=O)[C@H]1C/C=C/C[C@H](C(=O)OCC)C(=O)O[C@H]2[C@@H](OC)O[C@H](CO)[C@@H](OC(=O)Nc3ccc(OC)cc3)[C@@H]2OC1=O",
    "TARGET": "Streptavidin (Streptomyces avidinii)",
    "composite z-score": 0.355
  },
  {
    "COMPOUND": "C=CCOC(=O)[C@@H]1[C@H]2C(=O)O[C@H](c3ccccc3)[C@H](c3ccccc3)N2[C@H](c2ccc(OCCOC(=O)[C@H]3C[C@H]4C(=O)N[C@@H](CCCCN(C)C)C(=O)N4[C@H]3c3cccc(OCCO)c3)cc2)[C@@]12C(=O)Nc1ccc(I)cc12",
    "TARGET": "Streptavidin (Streptomyces avidinii)",
    "composite z-score": 0.458
  },
  {
    "COMPOUND": "O=C(N1CCCCC1)[C@@]1(Cc2ccccc2)COC(c2ccc(OCCCO)cc2)=N1",
    "TARGET": "Streptavidin (Streptomyces avidinii)",
    "composite z-score": 0.85
  },
  {
    "COMPOUND": "CN1C(=O)C2C=CC(C(O)c3c(F)cccc3Cl)N(Nc3ccccc3)C2C1=O (stereo not given)",
    "TARGET": "Streptavidin (Streptomyces avidinii)",
    "composite z-score": 1.53
  },
  {
    "COMPOUND": "C=C[C@@H](COC(C)=O)NS(=O)(=O)c1ccc(Br)cc1",
    "TARGET": "Streptavidin (Streptomyces avidinii)",
    "composite z-score": 0.0981
  }
]
